Molecular target: HCV-1 E1E2 (autologous strain) (Hepatitis C virus genotype 1a, strain …, UniProt P26664, strain)
Assay: ELISA

binder	binding result
RM2-01 heavy-chain variant I51A (antibody, V domains shown) VH: QVQLVQSGAEVKKPGASVKLSCKASGFTFRIYAISWVRQAPGQGLEWMGEAVPLGGITNYAQNFQGRAAITADTSINTAYMELSSLRSDDTAVYYCARVRTALVGPREGIFDFWGQGVLVTVSS VL: DIQMTQSPSSLSASVGDRVSITCRASQTISTYLAWYQQKPGKVPKLLIYTASTLETGVPSRFSGSGSGTEFTLTISSLQPEDFATYYCQQHDSHPYSFGQGTKVEIK	binds
RM11-43 heavy-chain variant L53A (antibody, V domains shown) VH: QVQLVQSGAEVKKPGASVKLSCKASGFTFRIYAISWVRQAPGQGLEWMGEIIPAGGITNYAQKFQGRVTITADTSTSTAYMELSSLRSEDTAVYYCARGETKMITVLAGTTGGGLDSWGQGTLVTVSS VL: DIQMTQSPSSLSASVGDKVTITCHASQGISSWLAWYQQKPGKAPKPLIYAASSLQSGVPSRFSGGGSGADYTLTISSLQPEDFATYYCQQYDDLPRTFGQGTKVEIK	binds
RM11-43 heavy-chain variant I52A (antibody, V domains shown) VH: QVQLVQSGAEVKKPGASVKLSCKASGFTFRIYAISWVRQAPGQGLEWMGEIAPLGGITNYAQKFQGRVTITADTSTSTAYMELSSLRSEDTAVYYCARGETKMITVLAGTTGGGLDSWGQGTLVTVSS VL: DIQMTQSPSSLSASVGDKVTITCHASQGISSWLAWYQQKPGKAPKPLIYAASSLQSGVPSRFSGGGSGADYTLTISSLQPEDFATYYCQQYDDLPRTFGQGTKVEIK	binds
